In this section, each of the compounds is paired with its reported TGI.
- Tested on: SK-MEL-2 melanoma
- experiment_summary: NCI tumour cell line growth inhibition, 48 h

## Input Could you please provide reported TGI for `Cc1nnc(N=Nc2c(O)[nH]c3c(Cl)cc(Cl)cc23)n1N` ? Thanks!
## Output > 100 µM

## Input Could you please provide reported TGI for COCc1c(CO)cnc(C)c1OC1OC(CO)C(O)C(O)C1O (stereo unspecified) ? Thanks!
## Output > 100 µM

Consider the record given below.
## Input Could you please provide reported TGI for `COc1ccc2oc(=Nc3ccccc3)c(C(N)=O)cc2c1` ? Thanks!
## Output > 100 µM
